Test system: 379773-124-R-J2-PDC spheroid viability;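 also: spheroids exposed to drugs for seven days before readout; percent viability relative to DMSO vehicle control taken as 100%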
Test: Anticancer human tumor 379773-124-R-J2-PDC patient-derived endometrial carcinoma cell line growth inhibition [POLQ]
Conditions: second compound 0.0316 µM; first compound 0.1 µM; hits give low values; spheroids with HUVEC and MSC
In plain terms, low viability, T/C, meaning strictly below 80%, gives 1, and everything else gives -1.

CCCS(=O)(=O)Nc1ccc(F)c(C(=O)c2c[nH]c3ncc(-c4ccc(Cl)cc4)cc23)c1F + Nc1ccc(C#CCN(C(=O)Cc2ncc(C(F)(F)F)cc2C(F)(F)F)c2ccc(F)cc2)nn1; -1
Cn1ncnc1[C@H]1c2n[nH]c(=O)c3cc(F)cc(c23)N[C@@H]1c1ccc(F)cc1 + Nc1ccc(C#CCN(C(=O)Cc2ncc(C(F)(F)F)cc2C(F)(F)F)c2ccc(F)cc2)nn1; 1
C=CCn1c(=O)c2cnc(Nc3ccc(N4CCN(C)CC4)cc3)nc2n1-c1cccc(C(C)(C)O)n1 + Nc1ccc(C#CCN(C(=O)Cc2ncc(C(F)(F)F)cc2C(F)(F)F)c2ccc(F)cc2)nn1; -1
C#Cc1c(F)ccc2cc(O)cc(-c3ncc4c(N5CC6CCC(C5)N6)nc(OCC56CCCN5CC(F)C6)nc4c3F)c12 (stereo unspecified) + Nc1ccc(C#CCN(C(=O)Cc2ncc(C(F)(F)F)cc2C(F)(F)F)c2ccc(F)cc2)nn1; -1
O=C(Nc1ccc(O)c(NS(=O)(=O)c2ccc(F)cc2)c1)c1ccc(-c2ccccc2)cc1 + Nc1ccc(C#CCN(C(=O)Cc2ncc(C(F)(F)F)cc2C(F)(F)F)c2ccc(F)cc2)nn1; -1
CCc1c2c(nc3ccc(O)cc13)-c1cc3c(c(=O)n1C2)COC(=O)[C@]3(O)CC + COC1C(OC(N)=O)C(O)C(Oc2ccc3c(O)c(NC(=O)c4ccc(O)c(CC=C(C)C)c4)c(=O)oc3c2C)OC1(C)C; 1

Task: Threshold test, viability, T/C < 80%: Nc1ccn(C2OC(CO)C(O)C2(F)F)c(=O)n1 (stereo unspecified) + Nc1ccc(C#CCN(C(=O)Cc2ncc(C(F)(F)F)cc2C(F)(F)F)c2ccc(F)cc2)nn1
Output: 1

Task: Threshold test, viability, T/C < 80%: CC(C)n1c(=O)n(C)c2cnc3cc(F)c(-c4ccc(OCCCN5CCCCC5)nc4)cc3c21 + Cc1cccc(N(C)C(=O)C2C(O)CCN2c2nc(C)cc(C(F)(F)F)c2C#N)c1
Output: 1

Task: Threshold test, viability, T/C < 80%: O=c1[nH]cc(F)c(=O)[nH]1 + Cc1cccc(N(C)C(=O)C2C(O)CCN2c2nc(C)cc(C(F)(F)F)c2C#N)c1
Output: -1
